Biological target: human active recombinant p38 (p38α) (Homo sapiens, UniProt Q16539)
Construct: 6His
Sequence (Q16539 whole entry): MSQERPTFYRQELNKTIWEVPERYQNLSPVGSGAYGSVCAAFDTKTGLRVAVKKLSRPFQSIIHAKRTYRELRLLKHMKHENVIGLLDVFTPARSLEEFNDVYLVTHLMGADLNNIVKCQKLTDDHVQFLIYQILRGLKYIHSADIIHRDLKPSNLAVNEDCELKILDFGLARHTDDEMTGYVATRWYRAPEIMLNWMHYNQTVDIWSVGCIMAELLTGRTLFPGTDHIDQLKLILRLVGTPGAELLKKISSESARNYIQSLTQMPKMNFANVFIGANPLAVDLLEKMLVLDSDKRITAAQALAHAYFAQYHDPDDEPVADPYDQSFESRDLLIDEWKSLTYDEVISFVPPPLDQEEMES
Assay: p38 Alpha Enzyme Assay (AlphaScreen, biotinylated-ATF2 substrate)
Assay type: biochemical
Conditions: means of replicate determinations; pre-incubated for 4 hours at 37° C.; SD of assay between 0.2 and 0.3 log units; read-out: p38α inhibition Mean pIC50 (converted)
Endpoint name: IC50 (nM)

*Q* Any idea what its IC50 is? The compound is Cc1c(F)cc(C(=O)NC2CC2)cc1-c1ccc2c(=O)n(CC(C)(C)CO)cc(C(C)N3CCNCC3)c2c1 (single isomer, unassigned) [Example 40]
*A* 0.0794

(P) Cc1c(F)cc(C(=O)NC2CC2)cc1-c1ccc2c(=O)n(CC(C)(C)CO)cc(S(=O)(=O)NCCN(C)C)c2c1
(Q) Cc1c(F)cc(C(=O)NC2CC2)cc1-c1ccc2c(=O)n(CC(C)(C)CO)cc(CN3CCN[C@@H](CO)C3)c2c1
*Q* Between the entries labelled P and Q , which has a larger IC50 value on record? Your answer should be the label of the entry you select.
*A* P
(P: 0.794 nM, Q: 0.158 nM)
